- test target: T1, Dex-2 (also: 6 peptides conjugated to 10 kDa dextran)
- T1 chain: CGPPPRGPPPR-NH2
- protocol details: ITC
Ends that are not written are not given here.
measure: Kd (nM)
Give just the number in nM; leave the unit off.

In: GET /values?readout=Kd&item= FBP21 tandem WW (protein) DPSKGRWVEGITSEGYHYYYDLISGASQWEKPEGFQGDLKKTAVKTVWVEGLSEDGFTYYYNTETGESRWEKPDD
Out: 1200
